# test: Log P by HPLC on reversed phase columns (EEC directive 79/831 Annex V.A8)
# Format: physicochemical
# setup_conditions: method [a]: LC-UV, acidic range, 0.1% formic acid in water and acetonitrile
measured_property: LogP

The examples below pair each entry with its known result.
QUERY: Give me measured LogP, please, for this compound: COC(=O)c1sc(Cl)c(Cl)c1C(F)F [II.023]
RESULT: 3.77^[a]

QUERY: Give me measured LogP, please, for this compound: N#Cc1sc(C(=O)O)c(Cl)c1Br [II.087]
RESULT: 1.55^[a]

QUERY: Give me measured LogP, please, for this compound: COC(=O)c1sc(Cl)c(C#N)c1Cl [II.022]
RESULT: 2.82^[a]

QUERY: Give me measured LogP, please, for this compound: Cc1sc(C(=O)O)c(F)c1Br [II.013]
RESULT: 2.08^[a]

---
QUERY: Give me measured LogP, please, for this compound: O=C(N[C@H]1CCSC1=O)c1sc(Br)c(Br)c1F [I.0017]
RESULT: 2.89^[a]

QUERY: Give me measured LogP, please, for this compound: COC(=O)c1cc(Cl)c(Br)s1 [II.047]
RESULT: 3.29^[a]

QUERY: Give me measured LogP, please, for this compound: COC(=O)c1sc(Br)c(Br)c1C#N [II.069]
RESULT: 3.26^[a]

QUERY: Give me measured LogP, please, for this compound: N#Cc1sc(C(=O)O)cc1Cl [II.034]
RESULT: 1.33^[a]

QUERY: Give me measured LogP, please, for this compound: CCOC(=O)c1sc(I)c(Cl)c1Cl [II.056]
RESULT: 4.57^[a]

QUERY: Give me measured LogP, please, for this compound: O=C(NC1CCNC1=O)c1cc(Br)c(Cl)s1 (stereo not shown) [I.0222]
RESULT: 1.73^[a]

QUERY: Give me measured LogP, please, for this compound: COC(=O)c1sc(F)c(Br)c1Br [II.086]
RESULT: 3.56^[a]

QUERY: Give me measured LogP, please, for this compound: COC(=O)c1sc(Cl)c(Br)c1Br [II.026]
RESULT: 4.02^[a]

QUERY: Give me measured LogP, please, for this compound: COC(=O)c1cc(Br)c(C#N)s1 [II.052]
RESULT: 2.63^[a]

QUERY: Give me measured LogP, please, for this compound: O=C(O)c1sc(Cl)c(Cl)c1C(F)F [II.003]
RESULT: 2.39^[a]

QUERY: Give me measured LogP, please, for this compound: COC(=O)[C@H](Cc1ccccc1)NC(=O)[C@H](CC(=O)O)NC(=O)c1sc(Br)c(Br)c1F [I.0338]
RESULT: 2.98^[a]

QUERY: Give me measured LogP, please, for this compound: O=C(O)c1sc(Cl)c(Br)c1Cl [II.012]
RESULT: 2.44^[a]

QUERY: Give me measured LogP, please, for this compound: N#Cc1c(C(=O)NC2CCOC2=O)sc(Cl)c1Cl (stereo not shown) [I.0818]
RESULT: 2.02^[a]

QUERY: Give me measured LogP, please, for this compound: O=C1CC(NC(=O)c2cc(Cl)c(Br)s2)CCN1 (stereo not shown) [I.0219]
RESULT: 1.77^[a]

QUERY: Give me measured LogP, please, for this compound: O=C(N[C@H]1CCOC1=O)c1sc(Cl)c(Cl)c1Br [I.0931]
RESULT: 2.59^[a]
